- assayed.target: T1, human GIP receptor (human) (UniProt P48546)
- T1 sequence (looked up): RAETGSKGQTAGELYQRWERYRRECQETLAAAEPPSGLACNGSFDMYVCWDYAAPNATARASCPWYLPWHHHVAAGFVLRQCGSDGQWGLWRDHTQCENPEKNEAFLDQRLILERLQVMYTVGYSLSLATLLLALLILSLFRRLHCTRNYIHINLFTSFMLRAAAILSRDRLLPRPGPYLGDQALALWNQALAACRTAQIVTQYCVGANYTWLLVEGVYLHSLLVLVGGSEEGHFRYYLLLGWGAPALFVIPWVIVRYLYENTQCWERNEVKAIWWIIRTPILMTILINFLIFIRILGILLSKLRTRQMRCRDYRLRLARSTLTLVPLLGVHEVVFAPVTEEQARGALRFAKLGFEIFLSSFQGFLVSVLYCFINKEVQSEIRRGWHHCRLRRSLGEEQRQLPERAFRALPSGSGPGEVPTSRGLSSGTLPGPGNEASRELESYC
- method.summary: cell-based or functional assay
*1 amine or outer side, *2 acyl side, *3 side chain or, on linkers, in order; H or OH if unused. Where no end group is shown, it is not given here. Side-chain parts run from the residue outwards. [ ]: non-standard residue; d: D form. The star is where a group is joined. αMePhe(2-F) = C[C@](N)(Cc1ccccc1F)C(=O)O; γGlu = O=C(O)[C@H](CCC(=O)[*:2])N[*:1]; αMeY = C[C@](N)(Cc1ccc(O)cc1)C(=O)O; 4Pal = N[C@@H](Cc1ccncc1)C(=O)O; αMeL = CC(C)C[C@](C)(N)C(=O)O; Lauroyl = CCCCCCCCCCCC(=O)*; Orn = NCCC[C@H](N)C(=O)O; AEEA = NCCOCCOCC(=O)O; Aib = CC(C)(N)C(=O)O
Give cAMP Emax for every item shown.
Numeric answer only, unit % assumed.

Query: So what's the measured cAMP Emax for this one? YXEGTXTSDXXIXLDXQAQXKFIXXLIEGGPSSGAPPPSK (Y-Aib-EGT-αMeF(2F)-TSD-4Pal-Aib-I-αMeL-LD-Orn-QAQ-Aib-K((2-[2-(2-Amino-ethoxy)-ethoxy]-acetyl)2-(γ-Glu)-CO-(CH2)12-CO2H)FI-(D-Glu)-αMeY-LIEGGPSSGAPPPSK((2-[2-(2-Amino-ethoxy)-ethoxy]-acetyl)2-(γ-Glu)-CO-(CH2)12-CO2H)-NH2) [Example 489]
Reply: 103

Query: Follow-up item: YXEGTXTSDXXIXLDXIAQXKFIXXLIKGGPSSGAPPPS (Y-Aib-EGT-αMeF(2F)-TSD-4Pal-Aib-I-αMeL-LD-Orn-IAQ-Aib-K((2-[2-(2-Amino-ethoxy)-ethoxy]-acetyl)-(γ-Glu)-CO-(CH2)12-CO2H)FI-(D-Glu)-αMeY-LIK((2-[2-(2-Amino-ethoxy)-ethoxy]-acetyl)-(γ-Glu)-CO-(CH2)12-CO2H)GGPSSGAPPPS-NH2) [Example 340]
Reply: 95.2

Query: Another binder to check: Y[Aib]EGT[αMePhe(2-F)]TSDK([AEEA-AEEA-γGlu-Lauroyl])[Aib]I[αMeL]LD[Orn]K([AEEA-AEEA-γGlu-Lauroyl])AQ[Aib][4Pal]FI[dE][αMeY]LIEGGPSSGAPPPS-NH2 [Example 415]
Reply: 101
